Numbers sourced from the supplement of paper PMC12855868.

Listed here: items and their measured scaled log2 fold change.
B1: library; numbered along this chain (parent)
chain: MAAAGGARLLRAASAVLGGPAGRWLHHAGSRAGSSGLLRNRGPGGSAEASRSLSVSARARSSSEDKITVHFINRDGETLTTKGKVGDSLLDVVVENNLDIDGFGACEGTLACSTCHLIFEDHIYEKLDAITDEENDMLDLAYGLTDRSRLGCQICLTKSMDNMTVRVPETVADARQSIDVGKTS

Variants of: B1
Assay: scaled log2 fold change in cell abundance, elesclomol vs control (0 = silent mean, 1 = nonsense mean) (scaled log2 ratio); higher = higher viability under elesclomol (loss of FDX1 cuproptosis function);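 note: variant abundance is its share of total variant reads in each endpoint sample, from next-generation sequencing of the integrated ORF PCR-amplified out of genomic DNA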
Settings: with HEK293T FDX1 KO; elesclomol 40 nM; glucose 10 mM; 11 days
reported.endpoint: scaled log2 fold change

1. R175D
1.25
2. I123S
0.206
3. D75W
-0.146
4. S52A
0.164
5. F119A
0.518
6. D128M
-0.00382
7. C112H
1.42
8. E95Q
-0.398
9. K126A
0.163
10. G151A
0.25
11. S30D
0.89
12. E125P
0.0466
13. L17I
-0.833
14. A28G
1.17
15. T170P
0.16
16. D132P
-0.681
17. V171A
0.229
18. K182M
-0.0296
19. G44Y
-0.79
20. A15G
0.437
21. E125R
-0.189
22. E169Y
-0.484
23. A21I
0.0632
24. L110V
-0.578
25. H116E
0.106
26. T81E
0.0361
27. V69E
1.55
28. Q176G
-0.11
29. G76W
-0.575
30. Q176Y
1.3
31. G102M
-0.665
32. Q176K
0.463
33. S159L
0.847
34. G18H
-0.242
35. C155V
-0.185
36. D173L
0.205
37. G181W
0.364
38. S159T
0.754
39. I123W
-0.208
40. R58C
-0.099
41. M163E
0.691
42. N73V
0.976
43. A111Q
-0.173
44. R31S
0.11
